- Test system: HOP-62 NSCLC
- RUN DESCRIPTION: NCI tumour cell line growth inhibition, 48 h
Below, each entry is listed with its recorded TGI.

COMPOUND	TGI
CCOC(=O)/C=C1/Oc2ccccc2C1(C)O (stereo not drawn)	> 100 µM
NCCCNc1nc2ccccc2c2c(=O)c3cccc(F)c3sc12	3.15 µM
CN(C)C1C(CO)OC(n2cnc3c(N)ncnc32)C1O (stereo not drawn)	> 100 µM
Oc1ccc(OCCOc2ccc(O)cc2)cc1	> 100 µM
CSc1ccc(C2=NN(c3ccccc3)C(c3ccc(-c4cc(Cl)c(Cl)cc4Cl)o3)C2)cc1 (stereo not drawn)	> 100 µM
Cc1ccc(N=Nc2c(C)nn(-c3ccccc3)c2C)c(Br)c1	> 100 µM
Cc1ccccc1NC(=O)C(=O)C1CN(c2ccccc2)N=C1N (stereo not drawn)	> 100 µM
c1ccc(COC2NCCN2Cc2ccccc2)cc1 (stereo not drawn)	> 100 µM
CN(C)CCNc1c2c(c(NCCN(C)C)c3c(CN(C)C)c[nH]c13)C(=O)c1ccccc1C2=O	11.9 µM
CCC1(O)C(=O)OCc2c1cc1n(c2=O)Cc2cc3cc(OC)c(OC)cc3nc2-1 (stereo not drawn)	8.38 µM
COc1cc2c(Oc3ccc4[nH]c(C)cc4c3F)ncnc2cc1OCCCN1CCCC1	10.5 µM
NC(N)=Nc1ccc(CC(N)C(=O)NCC(=O)C(CC(=O)O)c2ncc(NC(=O)C(F)(F)F)o2)cc1 (stereo not drawn)	> 25 µM
C(=N\c1cc2cc(Sc3ccccc3)ccc2[nH]1)/c1ccccc1	> 12.5 µM
NC(CCCCO)C(=O)O (stereo not drawn)	> 100 µM
CCOC(=O)NC(NCC(O)c1ccccc1)(C(F)(F)F)C(F)(F)F (stereo not drawn)	> 100 µM
Nc1nc(SCc2ccccc2)nc2[nH]ncc12	33.4 µM
CNc1ccccc1S(=O)(=O)c1ccccc1[N+](=O)[O-]	> 100 µM
COc1cc2c3c(c1Oc1nnnn1-c1ccccc1)-c1c(ccc4c1OCO4)C[C@H]3N(C)CC2	> 100 µM
COc1ccc(C(c2ccc(OC)cc2)N2C(=O)CCC2C(=O)O)cc1 (stereo not drawn)	> 100 µM
CCOC(=O)c1c(NNc2ccccc2)nc2ccccc2c1-c1ccccc1	59.3 µM
COC(=O)/C(C#N)=C1\CCC(OC)N1 (stereo not drawn)	> 100 µM
CC(CN(C)C)C(C#N)(c1ccccc1)c1ccccc1 (stereo not drawn)	> 100 µM
Clc1ccc(-c2nc3ccc(Cl)cc3[nH]2)cc1	> 100 µM

---

- System: OVCAR-4 ovarian
- RUN DESCRIPTION: NCI tumour cell line growth inhibition, 48 h

COMPOUND	TGI
Cc1ccccc1NC(=O)C(=O)C1CN(c2ccccc2)N=C1N (configuration not stated)	> 100 µM
C=CCOC1=C(OC(C)=O)C(=O)OC1C1COC(C)(C)O1 (configuration not stated)	32.1 µM
CC(C#N)NCc1ccc(C(C)NC(C)C#N)cc1 (configuration not stated)	> 100 µM
COc1cc(C2CC(c3ccc(SC)cc3)=NN2C(C)=O)cc(OC)c1OC (configuration not stated)	> 100 µM
N#CC1=C(N)OC2=C(CCCc3ccc([N+](=O)[O-])cc32)C1c1ccccc1 (configuration not stated)	> 100 µM
COC(=O)C1=C(OC(=O)/C(=C/c2ccccc2)c2ccc([N+](=O)[O-])cc2)C(C(=O)OC)[C@@]2(O)[C@@H](C(=O)OC)[C@H](C)C[C@@H]1[C@@H]2C(=O)OC (some centres not stated)	> 100 µM
CC(C)(C)OC(=O)C1=C(O)C(C(=O)OC(C)(C)C)C23CCCCC12C(C(=O)OC(C)(C)C)C(O)=C3C(=O)OC(C)(C)C (configuration not stated)	> 100 µM

---

- System: HOP-18 NSCLC
- RUN DESCRIPTION: NCI tumour cell line growth inhibition, 48 h
MEASUREMENT LABEL: TGI

COMPOUND	EXPERIMENTAL TARGET	MEASUREMENT LABEL	EXPERIMENTAL VALUE
[O-][n+]1c(-c2ccccc2)oc2ccccc21	HOP-18 NSCLC	TGI	20.1 µM
CC(=O)O[C@]1(C)CCC2C(C)C(=O)OC2C2C(C)[C@@H](O)CC21 (stereo partly specified)	HOP-18 NSCLC	TGI	> 100 µM
CC(C)(C)OC(=O)C1=C(O)C(C(=O)OC(C)(C)C)C23CCCCC12C(C(=O)OC(C)(C)C)C(O)=C3C(=O)OC(C)(C)C (stereo unspecified)	HOP-18 NSCLC	TGI	> 100 µM
C1C[OH+]CCNCC[OH+]CC[OH+]CCN1.O.[Cl-].[Pt+4]	HOP-18 NSCLC	TGI	> 100 µM
O=C(O)[C@@H](NS(=O)(=O)c1ccc(F)cc1)c1ccccc1	HOP-18 NSCLC	TGI	> 100 µM
COC(=O)/C(C#N)=C1\CCC(OC)N1 (stereo unspecified)	HOP-18 NSCLC	TGI	> 100 µM
Cn1c(C2CCCc3c2c2ccccc2n3C)cc2ccccc21 (stereo unspecified)	HOP-18 NSCLC	TGI	> 318 µM
CCCCCCCCCCCCC(=O)CCCCC(=O)O	HOP-18 NSCLC	TGI	59.3 µM
C#CCn1c(=O)[nH]c(=O)c2cccnc21	HOP-18 NSCLC	TGI	> 100 µM
CCCCCCCCNC(=O)SCCCC	HOP-18 NSCLC	TGI	> 100 µM
Cc1cc(C)nc(NS(=O)(=O)c2ccc(NC(=O)c3cccc4c(Nc5ccc(S(=O)(=O)N=C(N)N)cc5)c5ccccc5nc34)cc2)n1	HOP-18 NSCLC	TGI	> 100 µM

---

- Test system: HS 578T breast
- RUN DESCRIPTION: NCI tumour cell line growth inhibition, 48 h; in the data active = GI50 below about 0.43 µM; inactive = the rest
Labels: Y for active, N for inactive

COMPOUND	EXPERIMENTAL TARGET	CLASS
COc1cc(/C=C/[N+](=O)[O-])c([N+](=O)[O-])cc1OC	HS 578T breast	N
CCN(Cc1cc(F)cc(F)c1)c1ccc(CO)c(Cl)c1	HS 578T breast	N
CO[C@H]1/C=C/[C@@](C)(O)/C=C/C(=O)O[C@H](C)[C@@H](C)CC/C=C/1C	HS 578T breast	N
CSc1ccc(C2=NN(c3ccccc3)C(c3ccc(-c4cc(Cl)c(Cl)cc4Cl)o3)C2)cc1 (stereo unspecified)	HS 578T breast	N
O=C(/C=C/c1c(-c2ccccc2)[nH]c2ccccc12)S(=O)(=O)c1ccccc1	HS 578T breast	N
O=C1C(=O)/C(=C/c2ccccc2)CCCCCC/C1=C/c1ccccc1	HS 578T breast	N
CN(C)CCCNc1nc2ccccc2c2c(=O)c3cc(F)ccc3sc12	HS 578T breast	N
CCCCc1ccc(NS(=O)(=O)c2cc3c4c(c2)CCN4C(=O)CC3)cc1	HS 578T breast	N
COc1cc(/C=C/c2cc(/C=C/c3ccc(O)c(OC)c3)n(C(N)=O)n2)ccc1O	HS 578T breast	Y
C=C(C)[C@@H]1/C=C(/C(C)C)CC[C@@]2(C)OC2CC[C@H](C)CC1=O (stereo partly specified)	HS 578T breast	N
N#Cc1cc(-c2ccnc(Nc3ccc(NC(=O)CCl)cc3)n2)ccc1N1CCCC1	HS 578T breast	N

---

- Test system: U251 CNS
- RUN DESCRIPTION: NCI tumour cell line growth inhibition, 48 h
MEASUREMENT LABEL: log10(TGI) (log10 of the value in µM)

COMPOUND	log10(TGI)
Cn1c([N+](=O)[O-])cnc1/C=C1\Oc2ccc(Br)cc2C1=O	0.40
CC[C@H]1CC(=O)c2c(cc3c(c2O)C(=O)c2ccccc2C3=O)[C@@]1(C#N)C(=O)OC(C)(C)C	1.73
O=[N+]([O-])c1ccc(NC(=S)N=Nc2c(O)[nH]c3ccccc23)cc1	1.59
Cc1ccc(-c2cc(=O)c3cc4c(cc3[nH]2)OCO4)cc1	1.02
CCN(Cc1cc(F)cc(F)c1)c1ccc(CO)c(Cl)c1	1.21
N#CC1=C(N)OC2=C(CCCc3ccc([N+](=O)[O-])cc32)C1c1ccccc1 (stereo unspecified)	1.24
Cc1ccc(N(CC(=O)Nc2ccc(S(=O)(=O)NC3CCN(C)CC3)cc2)S(=O)(=O)c2ccc(Cl)cc2)cc1	0.77
CCC1(O)C(=O)OCc2c1cc1n(c2=O)Cc2cc3cc(OC)c(OC)cc3nc2-1 (stereo unspecified)	1.54
COC(=O)C1=C(C(=O)OC)SC2(S1)C1=C(CCC1)SC(C(=O)OC)=C2C(=O)OC	1.47
CN(C)CCNc1c2c(c(NCCN(C)C)c3c(CN(C)C)c[nH]c13)C(=O)c1ccccc1C2=O	1.02
COc1cc(C=C2c3ccccc3C(=O)c3ccccc32)ccc1OCCCCOc1cc2c(cc1OC)C(=O)N1CCCC1C=N2 (stereo unspecified)	-0.15
Cc1cc2c(cc1O)[nH]c1cc3c(cc12)C=CC(C)(C)O3	1.16
CC(c1ccccc1)N1C(=O)CSC1=S (stereo unspecified)	1.22
COC(=O)N/N=C(/CC1(O)C(=O)Nc2ccc([N+](=O)[O-])cc21)c1ccccc1 (stereo unspecified)	1.89
N#Cc1cc(-c2ccnc(Nc3ccc(NC(=O)CCl)cc3)n2)ccc1N1CCCC1	0.91
Cc1ccc(O)c(-c2cc(-c3cccc(Br)c3)c(C#N)c(N)n2)c1	1.55
COc1cc(C(=O)/C=C/c2c(-c3cccs3)nc3sccn23)cc(OC)c1OC	0.73
